Biological target: T1, cell-bound CD73 (human, UniProt P21589 27-549)
T1 sequence (looked up): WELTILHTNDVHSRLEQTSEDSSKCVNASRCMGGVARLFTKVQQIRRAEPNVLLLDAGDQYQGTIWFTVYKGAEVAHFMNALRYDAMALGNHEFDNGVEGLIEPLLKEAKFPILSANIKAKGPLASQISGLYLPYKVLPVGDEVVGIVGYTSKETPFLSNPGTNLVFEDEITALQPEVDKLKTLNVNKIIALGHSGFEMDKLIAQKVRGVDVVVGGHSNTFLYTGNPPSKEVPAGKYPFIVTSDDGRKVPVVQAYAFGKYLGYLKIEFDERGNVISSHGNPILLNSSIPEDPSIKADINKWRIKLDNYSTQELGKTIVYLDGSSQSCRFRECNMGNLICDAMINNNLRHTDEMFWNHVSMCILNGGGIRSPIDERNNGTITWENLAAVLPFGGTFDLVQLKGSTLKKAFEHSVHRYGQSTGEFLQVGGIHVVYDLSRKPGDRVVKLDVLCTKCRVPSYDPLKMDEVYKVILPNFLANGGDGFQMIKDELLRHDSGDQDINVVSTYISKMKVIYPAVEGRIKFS
Assay: cell-based or functional assay
PROPERTY_LABEL: IFNγ release [fold change over control], Donor D, 1 nM antibody (fold)
Answer in fold, number only, no unit symbol.

>  <BINDER>
C3 (antibody, human IgG1, kappa, L234A L235A, V domains shown, Humanized monoclonal antibody; also called anti-CD73 antibody C3) VH: QVQLVQSGAEVKKPGDSVKVSCKASGYTFTTYWMHWVRQAPGQGLEWMGAIYPGLSDTTYSQKFKGKVTMTRDTSTSTVYMKLSSLRSEDTAVYYCARLLDYAMDYWGQGTLVTVSS VL: DIQMTQSPSSLSASVGDRVTITCRASQDIRSYLNWHQQKPGKAPKLLIWYTSRLHSGVPSRFSGSGSGTDYTLTISSLQPEDFATYFCQQGETLPWTFGQGTKLEIKR

>  <UNIT_TEXT>
fold

>  <READOUT_NUMBER>
19

$$$$

// next item, IFNγ release [fold change over control], Donor D, 1 nM antibody requested
Challenge: // fetch IFNγ release [fold change over control], Donor D, 1 nM antibody given entry C6 (antibody, human IgG1, kappa, L234A L235A, V domains shown, Humanized monoclonal antibody; also called anti-CD73 antibody C6) VH: QVQLVQSGAEVKKPGDSVKVSCKASGYTFTTYWMHWVRQAPGQGLEWMGAIYPGNSDTTYNQKFKGKVTMTRDTSTSTVYMKLSSLRSEDTAVYYCARLLDYAMDYWGQGTLVTVSS VL: DIQMTQSPSSLSASVGDRVTITCRASQDIRNYLNWHQQKPGKAPKLLIWYTSRLHSGVPSRFSGSGSGTDYTLTISSLQPEDFATYFCQQGNTLPWTFGQGTKLEIKR
Response given: 25.8
